Molecular target: MC5-R (HEK-293 cells) (Homo sapiens, UniProt P33032)
Construct: expressed in transfected cells; host or cells: HEK-293
Sequence (P33032 whole entry): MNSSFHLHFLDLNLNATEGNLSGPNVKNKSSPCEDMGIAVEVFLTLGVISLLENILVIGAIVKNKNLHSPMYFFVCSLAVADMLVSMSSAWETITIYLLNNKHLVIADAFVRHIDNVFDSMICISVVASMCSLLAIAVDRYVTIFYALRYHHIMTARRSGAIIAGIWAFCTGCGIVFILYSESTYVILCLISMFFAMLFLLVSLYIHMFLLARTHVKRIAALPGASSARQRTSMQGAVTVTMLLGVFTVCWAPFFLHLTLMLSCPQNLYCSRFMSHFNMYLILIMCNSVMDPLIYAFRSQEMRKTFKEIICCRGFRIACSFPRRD
Assay: cAMP assay for agonist/antagonist status, MC5-R
Assay type: cell-based

compound.structure | target.of.assay | agonist/antagonist status as to MC5-R
NCCCC[C@H]1C(=O)N(CCc2ccc3ccccc3c2)CCN1C(=O)[C@@H](Cc1ccc(Cl)cc1Cl)NC(=O)[C@H]1CC[C@@H](c2ccccc2)N1 | MC5-R (HEK-293 cells) (Homo sapiens, UniProt P33032) | agonist
N=C(N)NCCC[C@H]1C(=O)N(CCc2ccc3ccccc3c2)CCN1C(=O)[C@H](N)Cc1ccc(Cl)cc1Cl | MC5-R (HEK-293 cells) (Homo sapiens, UniProt P33032) | agonist
NCCCC[C@H]1C(=O)N(CCc2ccc3ccccc3c2)CCN1C(=O)[C@@H](Cc1ccc(Cl)cc1Cl)NC(=O)c1cccc(Oc2ccccc2)c1 | MC5-R (HEK-293 cells) (Homo sapiens, UniProt P33032) | agonist

Values compiled from patent US7807678B2.
